Collected potentiation values appear next to each entry.
# tested on: UniProt:Q12809
# Sequence (Q12809 whole entry, looked up): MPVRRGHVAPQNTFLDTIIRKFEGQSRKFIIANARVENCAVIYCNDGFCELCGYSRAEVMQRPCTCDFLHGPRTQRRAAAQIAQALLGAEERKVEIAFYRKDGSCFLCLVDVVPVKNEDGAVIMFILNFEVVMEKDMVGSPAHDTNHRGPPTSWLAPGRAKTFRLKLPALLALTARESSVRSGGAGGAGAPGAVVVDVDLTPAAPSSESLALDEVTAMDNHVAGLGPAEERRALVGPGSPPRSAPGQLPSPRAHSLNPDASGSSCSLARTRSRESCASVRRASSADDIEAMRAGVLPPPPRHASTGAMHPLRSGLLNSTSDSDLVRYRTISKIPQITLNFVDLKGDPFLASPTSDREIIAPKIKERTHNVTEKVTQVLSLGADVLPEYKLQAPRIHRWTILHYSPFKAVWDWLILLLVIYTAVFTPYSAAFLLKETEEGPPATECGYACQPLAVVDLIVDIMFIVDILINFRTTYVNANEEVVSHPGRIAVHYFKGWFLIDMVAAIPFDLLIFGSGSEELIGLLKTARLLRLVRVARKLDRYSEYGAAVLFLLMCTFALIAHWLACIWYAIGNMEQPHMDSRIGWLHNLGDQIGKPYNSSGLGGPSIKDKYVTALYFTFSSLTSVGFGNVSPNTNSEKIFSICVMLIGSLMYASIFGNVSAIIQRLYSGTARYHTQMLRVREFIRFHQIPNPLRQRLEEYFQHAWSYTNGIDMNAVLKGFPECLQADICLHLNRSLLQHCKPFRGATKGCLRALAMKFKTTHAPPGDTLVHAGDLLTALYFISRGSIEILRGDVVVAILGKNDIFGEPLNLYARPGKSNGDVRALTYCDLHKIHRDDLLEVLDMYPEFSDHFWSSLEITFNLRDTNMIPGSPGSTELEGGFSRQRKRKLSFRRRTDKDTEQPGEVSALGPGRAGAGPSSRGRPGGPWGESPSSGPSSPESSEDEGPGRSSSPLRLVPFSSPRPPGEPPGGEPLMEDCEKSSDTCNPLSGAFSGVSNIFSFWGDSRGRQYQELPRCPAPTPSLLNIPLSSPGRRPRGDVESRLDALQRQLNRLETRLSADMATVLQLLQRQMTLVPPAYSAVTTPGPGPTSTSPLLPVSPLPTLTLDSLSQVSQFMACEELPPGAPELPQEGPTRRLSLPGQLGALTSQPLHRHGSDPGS
# assay info: compounds reversing dofetilide inhibition of hERG current – manual patch clamp, HEK293 cells, confirmation (AID 2605)
# reported conditions: dofetilide rescue, measured here: hERG potentiation without dofetilide, at 10 µM, stronger effect = higher value

compound: Cc1ccc(NC(=S)c2nc3ccccc3s2)cc1
value units: %
potentiation: 107

compound: O=C1C2CC=CCC2C(=O)N1c1ccc(Cc2ccncc2)cc1 (stereo not given)
value units: %
potentiation: 107

compound: CCC1CCCCN1C(=S)NC(=O)c1cccs1 (stereo not given)
value units: %
potentiation: 140

compound: O=C(NC(=S)Nc1ccccc1)c1cc(-c2ccccc2)nc2ccccc12
value units: %
potentiation: 119

compound: Cc1cccc(NC(=S)NC(=O)c2cc(-c3ccccc3)nc3ccccc23)c1
value units: %
potentiation: 107

---

# tested on: Voltage-gated inwardly rectifying potassium channel KCNH2 (Homo sapiens)
# assay info: compounds reversing dofetilide inhibition of hERG current – manual patch clamp, HEK293 cells, confirmation (AID 2605)
# reported conditions: dofetilide rescue, at 10 µM, stronger effect = higher value

molecule: O=C(NC(=S)Nc1ccccc1)c1cc(-c2ccccc2)nc2ccccc12
current remaining with dofetilide: 31%
--
molecule: O=C1C2CC=CCC2C(=O)N1c1ccc(Cc2ccncc2)cc1 (stereo not given)
current remaining with dofetilide: 33.8%
--
molecule: Cc1cccc(NC(=S)NC(=O)c2cc(-c3ccccc3)nc3ccccc23)c1
current remaining with dofetilide: 32.2%
--
molecule: CCC1CCCCN1C(=S)NC(=O)c1cccs1 (stereo not given)
current remaining with dofetilide: 46.5%
--
molecule: Cc1ccc(NC(=S)c2nc3ccccc3s2)cc1
current remaining with dofetilide: 23.9%

# credit: PubChem BioAssay AID2605
